# Test system: PA-TU-8988T
# ASSAY TEXT: cells
# Parameters: species or system SW620, SW620 MTHFD2-/-, HCT116; Resazurin cell viability dose-response in 384-well plates, fluorescence at 595 nm, logistic fit
# STUDY CONDITIONS: Homo sapiens, PaTu 8988t, 96 h, Figure 1=Extended Data Fig. 3e; C=DMEM+GlutaMAX (5% dFBS, 1% P/S); D=Vehicle; 96 h viability, no metabolite rescue (vehicle); read-out: EC50 compound
# EC50 values compiled below
ENDPOINT LABEL: EC50 (nM)

COMPOUND	UNIT TAG	RECORDED VALUE
CN(Cc1cnc2nc(N)nc(N)c2n1)c1ccc(C(=O)N[C@@H](CCC(=O)O)C(=O)O)cc1 [MTX]	nM	30.8
Nc1nc(N)c(CC(=O)Nc2cnc(C(=O)N[C@@H](CCC(=O)O)C(=O)O)c(F)c2)c(=O)[nH]1 [TH9619]	nM	22.2
